# System: NCI-H1792
# assay.notes: relative viability (nuclei count vs DMSO), 5 days (fraction); higher = more cells survive
# test.parameters: first compound 0.001 µM
measured.property: relative viability
Quick one: just the number, no unit, thanks!

**Q:** Which relative viability value belongs to Cc1cn(-c2cc(NC(=O)c3ccc(C)c(Nc4nccc(-c5cccnc5)n4)c3)cc(C(F)(F)F)c2)cn1 [Nilotinib] + Cc1nc(Nc2ncc(C(=O)Nc3c(C)cccc3Cl)s2)cc(N2CCN(CCO)CC2)n1 [Dasatinib] (partner 0.075 µM) ?
**A:** 0.614

**Q:** Which relative viability value belongs to Cc1cn(-c2cc(NC(=O)c3ccc(C)c(Nc4nccc(-c5cccnc5)n4)c3)cc(C(F)(F)F)c2)cn1 [Nilotinib] + C[C@@H](Oc1cc(-c2cnn(C3CCNCC3)c2)cnc1N)c1c(Cl)ccc(F)c1Cl [Crizotinib] (partner 1 µM) ?
**A:** 0.967

**Q:** Which relative viability value belongs to Cc1cn(-c2cc(NC(=O)c3ccc(C)c(Nc4nccc(-c5cccnc5)n4)c3)cc(C(F)(F)F)c2)cn1 [Nilotinib] + N=C(N)NC(=N)NCCc1ccccc1 [Phenformin] (partner 250 µM) ?
**A:** 0.277

**Q:** Which relative viability value belongs to Cc1cn(-c2cc(NC(=O)c3ccc(C)c(Nc4nccc(-c5cccnc5)n4)c3)cc(C(F)(F)F)c2)cn1 [Nilotinib] + O=C(c1cc(Cc2n[nH]c(=O)c3ccccc23)ccc1F)N1CCN(C(=O)C2CC2)CC1 [Olaparib] (partner 8 µM) ?
**A:** 0.312

**Q:** Which relative viability value belongs to Cc1cn(-c2cc(NC(=O)c3ccc(C)c(Nc4nccc(-c5cccnc5)n4)c3)cc(C(F)(F)F)c2)cn1 [Nilotinib] + CS(=O)(=O)N1CCN(Cc2cc3nc(-c4cccc5[nH]ncc45)nc(N4CCOCC4)c3s2)CC1 [Pictilisib] (partner 1 µM) ?
**A:** 0.209
